Target: hAM2 receptor (CALCRL:RAMP3) (Homo sapiens, UniProt O60896+Q16602)
Construct: expressed in transfected cells; host or cells: GeneBLAzer CALCRL:RAMP3-CRE-bla Freestyle 293F
Sequence (Q16602 23-461): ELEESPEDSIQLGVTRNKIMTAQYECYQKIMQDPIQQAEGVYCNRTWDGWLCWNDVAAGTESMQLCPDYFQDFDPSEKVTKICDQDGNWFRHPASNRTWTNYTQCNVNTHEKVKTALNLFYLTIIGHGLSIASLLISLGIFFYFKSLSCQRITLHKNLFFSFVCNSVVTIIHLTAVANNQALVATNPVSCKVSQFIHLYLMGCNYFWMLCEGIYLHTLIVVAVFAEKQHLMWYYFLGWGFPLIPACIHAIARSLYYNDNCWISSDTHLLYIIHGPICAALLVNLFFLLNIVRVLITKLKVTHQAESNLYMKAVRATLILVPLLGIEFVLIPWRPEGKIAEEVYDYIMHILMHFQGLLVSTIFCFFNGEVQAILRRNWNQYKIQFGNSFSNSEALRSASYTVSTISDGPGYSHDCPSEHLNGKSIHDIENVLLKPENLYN
Sequence (O60896 24-148): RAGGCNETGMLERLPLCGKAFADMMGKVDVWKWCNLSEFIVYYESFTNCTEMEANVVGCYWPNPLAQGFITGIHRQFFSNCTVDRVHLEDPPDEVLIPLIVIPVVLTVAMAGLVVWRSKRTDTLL
Test: AM2 receptor antagonist activity measured by cAMP assay (HTRF)
Type: cell-based
Settings: % MPE: percent of the maximal possible effect; agonist human adrenomedullin; read-out: hAM2-R Efficacy Antag (%) Ave
Numbered stars: 1 amine (or outer) side, 2 acyl side, 3 side chain; on linkers, the order of the positions; unused ones are H or OH. Bridge positions count the residues as written; N and C are the ends. Square brackets hold non-standard residues; d marks the D form. Peptide text beside a SMILES is read from it. * marks the point of attachment. Phe(3-CH2NH2) = O=C([C@H](Cc1cccc(CN[*:3])c1)N[*:1])[*:2]; Phe(3-CONH2) = NC(=O)c1cccc(C[C@H](N)C(=O)O)c1; Phe(2-CONH2) = NC(=O)c1ccccc1C[C@H](N)C(=O)O; X5 = O=C([C@H](Cc1ccc(CO)cc1)N[*:1])[*:2]; Phe(3-CN) = N#Cc1cccc(C[C@H](N)C(=O)O)c1; Triazol3yl(1,2,4-5-NH2) = Nc1nc(*)n[nH]1; Picolinoyl(3,5-F2) = O=C(c1ncc(F)cc1F)*; X16 = CCN(CC)CC[C@H](N[*:1])C(=O)[*:2]; Arg(Me) = CNC(=N)NCCC[C@H](N)C(=O)O; Orn(iPr) = CC(C)NCCC[C@H](N)C(=O)O; Benzoyl(4-F) = O=C(c1ccc(F)cc1)*; Oxazole2carbonyl = O=C(c1ncco1)*; 3Pal = N[C@@H](Cc1cccnc1)C(=O)O; Picolinoyl = O=C(c1ccccn1)*; ΔPro = O=C(O)[C@@H]1C=CCN1; Orn = NCCC[C@H](N)C(=O)O; X9 = Nc1cccnc1C(=O)*
ENDPOINT: Emax
Numeric answer plus unit only.

Let me check: CCN(CC)CC[C@@H]1NC(=O)[C@@H](NC(=O)[C@H](Cc2ccc(O)cc2)NC(=O)[C@H](NC(=O)c2ccccn2)C(C)C)CSSC[C@@H](C(=O)N[C@@H](Cc2cccnc2)C(N)=O)NC(=O)[C@H](Cc2ccccc2)NC(=O)[C@@H]2CCCN2C(=O)CNC(=O)[C@H](C(C)C)NC(=O)[C@H](CC(=O)O)NC1=O [Compound 8] (Picolinoyl-[dV]YC[X16]DVGPFC[3Pal]-NH2; disulfide 3-10) , system hAM2 receptor (CALCRL:RAMP3) (Homo sapiens, UniProt O60896+Q16602), measured Emax is 100%

Field Emax (hAM2 receptor (CALCRL:RAMP3) (Homo sapiens, UniProt O60896+Q16602)), entry CC(C)NCCC[C@@H]1NC(=O)[C@@H](NC(=O)[C@H](Cc2ccccc2C(N)=O)NC(=O)[C@H](NC(=O)c2ncco2)C(C)C)CSSC[C@@H](C(=O)N[C@@H](Cc2cccnc2)C(N)=O)NC(=O)[C@H](Cc2cccc(C(N)=O)c2)NC(=O)[C@@H]2C=CCN2C(=O)CNC(=O)[C@H](C(C)C)NC(=O)[C@H](CC(=O)O)NC1=O [Compound 65] (Oxazole2carbonyl-[dV][Phe(2-CONH2)]C[Orn(iPr)]DVG[ΔPro][Phe(3-CONH2)]C[3Pal]-NH2; disulfide 3-10) : 100%

Considering CC(C)[C@@H]1NC(=O)[C@H](CC(=O)O)NC(=O)[C@H](CCCNC(=N)N)NC(=O)[C@@H](NC(=O)[C@H](Cc2ccc(O)cc2)NC(=O)[C@H](NC(=O)c2ncccc2N)C(C)C)CSSC[C@@H](C(=O)N[C@@H](Cc2cccnc2)C(N)=O)NC(=O)[C@H](Cc2ccccc2)NC(=O)[C@@H]2CCCN2C(=O)CNC1=O [Compound 36] (X9-[dV]YCRDVGPFC[3Pal]-NH2; disulfide 3-10) , its Emax with hAM2 receptor (CALCRL:RAMP3) (Homo sapiens, UniProt O60896+Q16602) was recorded as 101%

Summary: CNC(=N)NCCC[C@@H]1NC(=O)[C@@H](NC(=O)[C@H](Cc2ccc(O)cc2)NC(=O)[C@H](NC(=O)c2ccccn2)C(C)C)CSSC[C@@H](C(=O)N[C@@H](Cc2cccnc2)C(N)=O)NC(=O)[C@H](Cc2ccccc2)NC(=O)[C@@H]2CCCN2C(=O)CNC(=O)[C@H](C(C)C)NC(=O)[C@H](CC(=O)O)NC1=O [Compound 28] (Picolinoyl-[dV]YC[Arg(Me)]DVGPFC[3Pal]-NH2; disulfide 3-10) , hAM2 receptor (CALCRL:RAMP3) (Homo sapiens, UniProt O60896+Q16602), Emax = 99%

GET /values?item= CC(C)[C@@H]1NC(=O)[C@H](CC(=O)O)NC(=O)[C@H](CCCNC(=N)N)NC(=O)[C@@H](NC(=O)[C@H](Cc2ccc(O)cc2)NC(=O)[C@H](NC(=O)c2ccc(F)cc2)C(C)C)CSSC[C@@H](C(=O)N[C@@H](Cc2cccnc2)C(N)=O)NC(=O)[C@H](Cc2cccc(C#N)c2)NC(=O)[C@@H]2CCCN2C(=O)CNC1=O [Compound 21] ({Benzoyl(4-F)}-[dV]YCRDVGP[Phe(3-CN)]C[3Pal]-NH2; disulfide 3-10) &system= hAM2 receptor (CALCRL:RAMP3) (Homo sapiens, UniProt O60896+Q16602) returns Emax: 99%

I looked up CC(C)NCCC[C@@H]1NC(=O)[C@@H](NC(=O)[C@H](Cc2ccc(O)cc2)NC(=O)[C@H](NC(=O)c2ccccn2)C(C)C)CSSC[C@@H](C(=O)N[C@@H](Cc2cccnc2)C(N)=O)NC(=O)[C@H](Cc2ccc(CO)cc2)NC(=O)[C@@H]2CCCN2C(=O)CNC(=O)[C@H](C(C)C)NC(=O)[C@H](CC(=O)O)NC1=O [Compound 55] (Picolinoyl-[dV]YC[Orn(iPr)]DVGP[X5]C[3Pal]-NH2; disulfide 3-10) and its Emax for hAM2 receptor (CALCRL:RAMP3) (Homo sapiens, UniProt O60896+Q16602) was 100%

// Emax (hAM2 receptor (CALCRL:RAMP3) (Homo sapiens, UniProt O60896+Q16602)) for CC(C)NCCC[C@@H]1NC(=O)[C@@H](NC(=O)[C@H](Cc2ccccc2C(N)=O)NC(=O)[C@H](NC(=O)c2ccccn2)C(C)C)CSSC[C@@H](C(=O)N[C@@H](Cc2cccnc2)C(N)=O)NC(=O)[C@H](Cc2cccc(CN)c2)NC(=O)[C@@H]2C=CCN2C(=O)CNC(=O)[C@H](C(C)C)NC(=O)[C@H](CC(=O)O)NC1=O [Compound 54] (Picolinoyl-[dV][Phe(2-CONH2)]C[Orn(iPr)]DVG[ΔPro][Phe(3-CH2NH2)]C[3Pal]-NH2; disulfide 3-10) = 99%

Form: item CC(C)[C@@H]1NC(=O)[C@H](CC(=O)O)NC(=O)[C@H](CCCNc2nc(N)n[nH]2)NC(=O)[C@@H](NC(=O)[C@H](Cc2ccc(O)cc2)NC(=O)[C@H](NC(=O)c2ccccn2)C(C)C)CSSC[C@@H](C(=O)N[C@@H](Cc2cccnc2)C(N)=O)NC(=O)[C@H](Cc2ccccc2)NC(=O)[C@@H]2CCCN2C(=O)CNC1=O [Compound 27] (Picolinoyl-[dV]YC[Orn](Triazol3yl(1,2,4-5-NH2))DVGPFC[3Pal]-NH2; disulfide 3-10) ; test system hAM2 receptor (CALCRL:RAMP3) (Homo sapiens, UniProt O60896+Q16602); Emax: 98%

For the molecule CC(C)[C@@H]1NC(=O)[C@H](CC(=O)O)NC(=O)[C@H](CCCNC(=N)N)NC(=O)[C@@H](NC(=O)[C@H](Cc2ccc(O)cc2)NC(=O)[C@H](NC(=O)c2ncc(F)cc2F)C(C)C)CSSC[C@@H](C(=O)N[C@@H](Cc2cccnc2)C(N)=O)NC(=O)[C@H](Cc2ccccc2)NC(=O)[C@@H]2CCCN2C(=O)CNC1=O [Compound 35] ({Picolinoyl(3,5-F2)}-[dV]YCRDVGPFC[3Pal]-NH2; disulfide 3-10) , the measured Emax on hAM2 receptor (CALCRL:RAMP3) (Homo sapiens, UniProt O60896+Q16602) was 101%

Lab entry: hAM2 receptor (CALCRL:RAMP3) (Homo sapiens, UniProt O60896+Q16602) assay, molecule CC(C)[C@@H]1NC(=O)[C@H](CC(=O)O)NC(=O)[C@H](CCCNC(=N)N)NC(=O)[C@@H](NC(=O)[C@H](Cc2cccc(CN)c2)NC(=O)[C@H](NC(=O)c2ccc(F)cc2)C(C)C)CSSC[C@@H](C(=O)N[C@@H](Cc2cccnc2)C(N)=O)NC(=O)[C@H](Cc2ccc(O)cc2)NC(=O)[C@@H]2C=CCN2C(=O)CNC1=O [Compound 22] ({Benzoyl(4-F)}-[dV][Phe(3-CH2NH2)]CRDVG[ΔPro]YC[3Pal]-NH2; disulfide 3-10) , Emax = 101%
